Catalogue of sequences with associated protein stability index
Test system: Saccharomyces cerevisiae
assay-info: protein stability index of tFT-peptide fusion (C-terminal peptide) (PSI (0-1 scale)); higher = more stable (slower turnover)
condition-parameters: genetic background: wild type; temperature: 30 C
When you answer, write just the number.

// known answers, use as guide
monomer-sequence: FLGAVVGVGLVG
parameter: protein stability index
observed: 0.658
//
monomer-sequence: LPRSSGSTTPYP
parameter: protein stability index
observed: 0.688
//
monomer-sequence: ILCPGLYQFLVF
parameter: protein stability index
observed: 0.529
//
monomer-sequence: PHPPHLRPLCPR
parameter: protein stability index
observed: 0.719
//
monomer-sequence: GGLREPIYQLWV
parameter: protein stability index
observed: 0.648
//
monomer-sequence: PTAPLIPTGGAP
parameter: protein stability index
observed: 0.685
//
monomer-sequence: GRSITTSCTTER
parameter: protein stability index
observed: 0.673

Shift focus to the following entry.
Given VCLCGGLGWVLF , state its recorded protein stability index.
0.634

----------
Test system: Saccharomyces cerevisiae
assay-info: protein stability index of tFT-peptide fusion (C-terminal peptide) (PSI (0-1 scale)); higher = more stable (slower turnover)
condition-parameters: genetic background: wild type; temperature: 30 C
protein stability index values for the sequences below.
Write the value as a bare number.

monomer-sequence: SCWVLPFHYGSG
protein stability index: 0.714
--
monomer-sequence: GGGAAGILWGLG
protein stability index: 0.694
--
monomer-sequence: EKEGPDRGECGL
protein stability index: 0.682
--
monomer-sequence: SMLVPLPPFSSA
protein stability index: 0.694
--
monomer-sequence: HPTSNQATGRAN
protein stability index: 0.692
--
monomer-sequence: PCASGSPRFCQR
protein stability index: 0.707
--
monomer-sequence: VGVSFSFGSIFL
protein stability index: 0.687
--
monomer-sequence: GPVFLPLFWAGV
protein stability index: 0.685
--
monomer-sequence: GRVGGGVEPCFV
protein stability index: 0.679
--
monomer-sequence: GGGGFGFGWSMV
protein stability index: 0.709

Form field: reported protein stability index of IKKKKKEKGDST
0.713

Returns the measured protein stability index for the input sequence. Input: GGWGGAGQWADG
0.706

Returns the measured protein stability index for the input sequence. Input: PLRPRGAAPPHP
0.684

Need protein stability index of VAYAGIRHDIPQ , thanks.
0.68

Please look up its protein stability index: PPPHSSPPPSPP
0.693

----------
Test system: Saccharomyces cerevisiae
assay-info: protein stability index of tFT-peptide fusion in deletion strain of DAS1 (PSI (0-1 scale)); higher = more stable (slower turnover)
parameter: protein stability index
Just the number, please.

Here's what some known entries look like.
monomer-sequence: LVVYLSCVACDN
protein stability index: 0.272
--
monomer-sequence: MRGAVGGWRLVG
protein stability index: 0.653
--
monomer-sequence: FSMDWTFRYWVN
protein stability index: 0.543
--
monomer-sequence: GSLAASFWRVVG
protein stability index: 0.689
--
monomer-sequence: FFMRWTFRYWVN
protein stability index: 0.371

I have this sequence here, RLCQPLPVQFLN , and I need its recorded protein stability index.
0.612

Request the reported protein stability index associated with FSMRWTYRYWVN
0.504

Endpoint output: protein stability index of RLIQPLPVTFLN . Value?
0.7

Look up protein stability index: KKHKKLQKQKIN
0.602

State the recorded protein stability index for this entry: LSILRQKMNHQN
0.675

Bench note: what protein stability index did CTSCGVKFRTNN show?
0.692

----------
Tested on: Saccharomyces cerevisiae
assay-info: protein stability index of tFT-peptide fusion (C-terminal peptide) (PSI (0-1 scale)); higher = more stable (slower turnover)
condition-parameters: genetic background: wild type; temperature: 30 C
Label NO if protein stability index falls below 0.7; label YES in every other case.

Example entries begin here.
monomer-sequence: FVGPAWLGVRSC
label-class: NO

monomer-sequence: FCCFFVHMSFFL
label-class: NO

Quick check: does SLEALARDRFCT have protein stability index greater than or equal to 0.7?
YES

Is protein stability index for ALRSGGAARVRL at or above 0.7?
YES

Check this sequence for protein stability index at or above 0.7: PISNMSIILLFL
NO

Exam item: decide whether the reported protein stability index for LRENKGPAPPLL is at least 0.7.
NO

Is the recorded value of protein stability index equal to or greater than 0.7 for this sequence? IGSFFLFFLLIF
NO

Check this sequence for protein stability index at or above 0.7: LPASLPPPPPPY
YES

----------
# key: entry, value: protein stability index
Tested on: Saccharomyces cerevisiae
assay-info: protein stability index of tFT-peptide fusion (C-terminal peptide) (PSI (0-1 scale)); higher = more stable (slower turnover)
condition-parameters: genetic background: wild type; temperature: 30 C
API doc: respond with a numeric literal and nothing else, no unit.

monomer-sequence: KKNKKKRRAQKE
observed: 0.669

For LGACAGSGFKGV , what is its reported protein stability index?
0.713

Bench note: what protein stability index did WVSWGCCSFLLT show?
0.616

Requested field: protein stability index. Item: QASRGSLPSEIE
0.641

Entry GTCWAGALGVVG : reported protein stability index = ?
0.684

For QKKRKKTNQKNL , what is its reported protein stability index?
0.621

----------
Each entry below carries its reported protein stability index.
Test system: Saccharomyces cerevisiae
assay-info: protein stability index of tFT-peptide fusion (C-terminal peptide) (PSI (0-1 scale)); higher = more stable (slower turnover)
condition-parameters: genetic background: wild type; temperature: 30 C
Answer with the value's number alone.

monomer-sequence: YPPYPSHSSLHT
protein stability index: 0.699
//
monomer-sequence: RGLVLWVVSGRG
protein stability index: 0.616
//
monomer-sequence: CSAHVPAPHSYR
protein stability index: 0.704
//
monomer-sequence: PSSPPSLRLPPL
protein stability index: 0.701

As a next step, examine the sequence that follows.
Fill in: protein stability index of APTVPVPPSPDA is ___
0.705

----------
Tested on: Saccharomyces cerevisiae
assay-info: protein stability index of tFT-peptide fusion (C-terminal peptide) (PSI (0-1 scale)); higher = more stable (slower turnover)
condition-parameters: genetic background: das1 deletion; temperature: 30 C
parameter: protein stability index
The answer should be written as a number, with no unit following it.

Please review the entries below; each comes with its answer.
monomer-sequence: YLKLRGANFVLK [IES6 C-terminal 12 aa]
observed: 0.695
//
monomer-sequence: LRASGDDSDPAY [PFA5 C-terminal 12 aa]
observed: 0.708
//
monomer-sequence: NEKGNDDSDAKK [ILM1 C-terminal 12 aa]
observed: 0.695
//
monomer-sequence: KMVLSHMKEKKD [YGL140C C-terminal 12 aa]
observed: 0.688
//
monomer-sequence: TDGSKEDVDALP [ZNF1 C-terminal 12 aa]
observed: 0.688

Moving on to the next sequence.
Recorded protein stability index for WRFLGIVKSPNT [YDR510C-A C-terminal 12 aa] with Saccharomyces cerevisiae, please?
0.681

----------
Test system: Saccharomyces cerevisiae
assay-info: protein stability index of tFT-peptide fusion (C-terminal peptide) (PSI (0-1 scale)); higher = more stable (slower turnover)
condition-parameters: genetic background: wild type; temperature: 30 C
Below, each entry is listed alongside its reported protein stability index.

So what's the measured protein stability index for this one? PSRSATRPFPLS
0.707

Which protein stability index reading was recorded for the sequence LISNEGASRWDL ?
0.625

Which protein stability index value belongs to NTTKLEKRGNIE ?
0.574

Param item = PLASLPALHFSL ; retrieve measured protein stability index.
0.678

----------
Tested on: Saccharomyces cerevisiae
assay-info: protein stability index of tFT-peptide fusion (C-terminal peptide) (PSI (0-1 scale)); higher = more stable (slower turnover)
condition-parameters: genetic background: wild type; temperature: 30 C
Form field: protein stability index (one value per entry).
Could you keep your reply to the number by itself?

monomer-sequence: EGGWRLVWGRGG
observed: 0.722
//
monomer-sequence: VGRARRKGGGVG
observed: 0.638
//
monomer-sequence: SLARLRRICFNT
observed: 0.36

Consider the sequence EKSEKSRGNRYV and give its measured protein stability index.
0.72

Field request: protein stability index | item: TPPPPAPPHPPP
0.62

Could you tell me which protein stability index is on file for RTRSVPWEPRYF ?
0.687

Need protein stability index of PVVFFSYPLPSF , thanks.
0.699

If you can, please state the reported protein stability index value of WRTPVCSPFLLG .
0.691

Give its protein stability index value. Item: TLRVQNKRKSEE
0.663

Look up protein stability index for this sequence: VLYWTGTLFVSL
0.307

Need protein stability index of FPFVVVISSSGE , thanks.
0.693

----------
Test system: Saccharomyces cerevisiae
assay-info: protein stability index of tFT-peptide fusion (C-terminal peptide) (PSI (0-1 scale)); higher = more stable (slower turnover)
condition-parameters: genetic background: wild type; temperature: 30 C
Reported protein stability index values for a set of sequences
# print the numeric value only

The examples below pair each entry with its known result.
monomer-sequence: PHAPHPPHPAPC
parameter: protein stability index
observed: 0.653
//
monomer-sequence: FFGFYLKFVWCG
parameter: protein stability index
observed: 0.21
//
monomer-sequence: LSLLLLPPFPHF
parameter: protein stability index
observed: 0.758
//
monomer-sequence: VEWCARGRVRRA
parameter: protein stability index
observed: 0.757
//
monomer-sequence: PRALLPPSPPSP
parameter: protein stability index
observed: 0.635

For the sequence APILFRICVRRL , what protein stability index is on record?
0.541

Query (sequence): SYFASLLDLFTA ; field requested: protein stability index
0.598

Please give the measured protein stability index for this sequence: LCRCPVGVFVLL
0.362

Return reported protein stability index; argument: LPSPSATPPRPP
0.634

Any idea what its protein stability index is? The sequence is VAQKARSVRFSI
0.722

May I ask what protein stability index has been recorded for DRTQKIQNNKWM ?
0.622
